All figures here come from paper PMC12019227.

Molecular target: UP1 R146A (human, UniProt P09651 1-196, R146A)
Sequence (P09651 1-196 R146A): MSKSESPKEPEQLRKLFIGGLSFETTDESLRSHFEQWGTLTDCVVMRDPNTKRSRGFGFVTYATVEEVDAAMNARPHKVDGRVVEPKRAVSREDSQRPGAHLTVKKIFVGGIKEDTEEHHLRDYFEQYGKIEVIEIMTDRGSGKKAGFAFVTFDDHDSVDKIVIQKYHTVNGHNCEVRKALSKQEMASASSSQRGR
Test: ITC; ITC: 20 mM Tris-HCl pH 7.5, 150 mM NaCl, 20 C; protein 160 uM in syringe, RNA 10 uM in cell
Settings: protein: recombinant; tags: C-terminal His6; single strand; crystal has 2 antiparallel strands
reported endpoint: Kd (nM)
Give bare numbers, in nM.

Ask: Fill blank: measured Kd of the binder UUAGGGUUAGGG (ssRNA) [TERRA (UUAGGG)2] is ____.
Reply: 2120
